system: HepG2; test: Anticancer activity against human HepG2 cells assessed as cell viability after 48 hrs by MTT microcultured tetrazolium assay; assay type: functional, cell-based; details: HepG2, 48 h
pIC50: −log10 of the molar value.
property measured: pIC50

compound="COc1ccc2c(c1)CCC1=C2N=c2s/c(=C\\c3c(C)[nH]c4ccccc34)c(=O)n2C1c1ccc(Cl)cc1 (stereo not drawn)" property_measured=pIC50 experimental_value=4.41

I = COc1ccc2c(c1)CCC1=C2N=c2s/c(=C\c3c[nH]c4ccccc34)c(=O)n2C1c1ccc(F)cc1 (stereo not drawn)
II = O=c1/c(=C/c2c[nH]c3ccccc23)sc2n1C(c1ccc(Cl)cc1)C1=C(N=2)c2ccccc2CC1 (stereo not drawn)
[in] // compare measured pIC50, left I , right II , return larger // caller expects the label of the chosen entry
[out] II
(II: 4.79, I: 4.59)

P = Cc1[nH]c2ccccc2c1/C=c1\sc2n(c1=O)C(c1ccc(Cl)cc1)C1=C(N=2)c2ccccc2CC1 (stereo not drawn)
Q = O=c1/c(=C/c2c[nH]c3ccccc23)sc2n1C(c1cccc([N+](=O)[O-])c1)C1=C(N=2)c2ccccc2CC1 (stereo not drawn)
[in] Hey, which is lower on measured pIC50, P or Q ? // caller expects the label of the chosen entry
[out] Q
